Assay: Approximate solubility at 25° C. and 50° C. (visual)
Type: physicochemical
Conditions: DMSO, 50 °C, organic solvent or mixture, thermodynamic from solid, DMSO, 50° C.; read-out: Solubility
Procedure: About 5 mg of Compound 1 Form A was weighed to a 2 mL glass vial. 20 μL aliquots of each solvent were added to dissolve the drug substance at 25° C. About 10 mg of Compound 1 Form A was weighed to a 2 mL glass vial. 20 μL aliquots of each solvent were added to dissolve the drug substance at 50° C. […] Approximate solubility was determined by visual observation. About 5 mg of Compound 1 Form B was weighed to a 2 mL glass vial. […] Approximate solubility was determined by visual observation.
measurement.type: solubility

Find the measured solubility of CCN(C)S(=O)(=O)Nc1ccc(F)c(Oc2ccc3ncn([C@H]4COC5(CCN(C(=O)CC6(O)CCN(c7cc8c(cc7F)c(N7CCC(=O)NC7=O)nn8C)CC6)CC5)C4)c(=O)c3c2)c1C#N [Compound 1 Form A] and report it.
> 500 mg/mL

These data points were gathered from patent US20250289827A1.
